- study.target: T1, SUMO-RRM R472E (Schizosaccharomyces pombe, UniProt Q9UTE3 388-540, R472E)
- T1 sequence: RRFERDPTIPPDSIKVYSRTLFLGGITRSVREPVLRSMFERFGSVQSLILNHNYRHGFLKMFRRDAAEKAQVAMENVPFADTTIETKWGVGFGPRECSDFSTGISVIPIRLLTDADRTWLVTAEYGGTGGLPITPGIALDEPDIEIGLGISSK
- measurement.notes: fluorescence anisotropy; text: completely abolishes RNA binding; fitted Kd error exceeds value; 25 mM Tris-HCl pH 8.0, 100 mM NaCl, 2 mM MgCl2, 1 mM DTT, 16.7% glycerol, 0.1% IGEPAL, 0.1 mg/ml tRNA, 2.5% RNasin, 25 C, 40 nM FAM-RNA
- experimental.parameters: protein: recombinant; tags: N-terminal His6-SUMO; single strand
reported.property: Kd
Field note: include the unit after the figure.

The reported value for AUUAGUAAAA (ssRNA) [FAM-AUUAGUAAAA RNA] in terms of Kd is 17.8 µM

Sourced from paper PMC5382271
